All values here come from PubChem BioAssay (NCI).

The following compounds are listed with their measured growth inhibition values.
Assay Info: NCI Yeast Anticancer Drug Screen. Data for the bub3 strain (AID 167)
Measurement Context: S. cerevisiae bub3 mutant strain, at 50.0 µM, hits give high values
The panel holds about 79,000 compounds, 15% with a hit somewhere; the sample as a whole holds those more often.
Quantity: growth inhibition (%)

>>> result_value("O=C(c1ccccc1O)N1CCCCC1")
16.6
>>> result_value("O=C(Cc1ccccc1)NN1C(=O)/C(=C\\c2ccc(O)cc2)SC1=Nc1ccccc1")
-9.75
>>> result_value("O=C(NC1C2CC3CC(C2)CC1C3)c1cc(/C=C/c2ccccc2)[nH]c(=S)n1 (centres undefined)")
-2.25
>>> result_value("N#CC(C#N)=CNc1cccc(Cl)c1")
-1.05

###

Assay Info: NCI Yeast Anticancer Drug Screen. Data for the mec2-1 strain (AID 157)
Measurement Context: S. cerevisiae mec2-1 strain, at 50.0 µM, hits give high values
Compounds without any hit were thinned out: in the full panel of roughly 79,000, 15% have a hit.
Quantity: growth inhibition (%)

>>> result_value("CN(C)c1cccc([N+](=O)[O-])c1")
-11
>>> result_value("CC(C)(C#N)CCCS(C)(=O)=O")
-4.35
>>> result_value("CC(C)C(CNC(=S)Nc1ccccc1)(c1ccccc1)c1ccccc1")
13.1
>>> result_value("COc1cccc(C2c3cc4c(cc3OC(N3CCCC3)C2C)OCO4)c1OC (stereo unspecified)")
17.6
>>> result_value("Nc1cccc2ccc(S(=O)(=O)O)cc12")
-9
>>> result_value("CC(=O)OC(C)C(=O)C1c2cccc(O)c2C(=O)c2c(O)cc(C)cc21 (stereo unspecified)")
19.1

###

Assay Info: NCI Yeast Anticancer Drug Screen. Data for the rad50 strain (AID 155);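 also: 0% = growth of vehicle-only cultures of the same strain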
Measurement Context: S. cerevisiae rad50 strain growth inhibition; at 50.0 µM; hits give high values
This is part of a sample that, as a whole, favours compounds with a hit. Of some 79,000 tested, about 15% had one in any assay.
Recorded growth inhibition values for a group of compounds are listed next.
Quantity: growth inhibition (%)

>>> result_value("COC(=O)/C=C(\\C(=O)OC)C(C(=O)c1ccccc1)=P(c1ccccc1)(c1ccccc1)c1ccccc1")
-9.95
>>> result_value("O=C(COc1ccc(Cl)cc1)Nc1nccs1")
4.95
>>> result_value("CC(C)=Cc1cc(-c2cc(C=C(C)C)[nH]n2)n[nH]1")
-35.4
>>> result_value("O=C(Nc1ccc(Cl)c(Cl)c1)C(=O)C(C(=O)c1ccccc1-c1ccccc1)C1OC(=O)c2ccccc21 (configuration not stated)")
20.2
>>> result_value("CCOC(OCC)C(C)(C)OC=O")
-9.2
>>> result_value("CCNC(=O)c1cc2ccccc2cc1O")
1.4
>>> result_value("N#CC(C(=O)CCCC(=O)Nc1ccccc1[N+](=O)[O-])c1ccc(Cl)cc1Cl (configuration not stated)")
-10.2

###

Quick reference: growth inhibition of the listed items.
Assay Info: NCI Yeast Anticancer Drug Screen. Data for the bub3 strain (AID 167)
Measurement Context: S. cerevisiae bub3 mutant strain, at 50.0 µM, hits give high values
About 79,000 compounds went through this panel and 15% of them were active in at least one assay; those are over-represented in the sample as a whole.
Quantity: growth inhibition (%)

>>> result_value("COc1cc(C(c2cc3c(cc2O)OCO3)n2ccnc2)cc(OC)c1OC (centres undefined)")
2.9
>>> result_value("Cc1ccc(CO)cc1C")
-1.35
>>> result_value("O=C(SCc1ccccc1)N(c1ccccc1)c1ccccc1")
12.4
>>> result_value("COC(=O)C(CC(=O)c1ccc2ccccc2c1)OC (centres undefined)")
6.35
>>> result_value("CC1C2CC(CC2O)C1(C)C (centres undefined)")
6.3
>>> result_value("O=C1OCC/C1=C\\c1ccsc1")
-8.3
>>> result_value("COc1cccc(-c2cc(=O)c3cccc(CC(=O)O)c3o2)c1")
-2.35
>>> result_value("O=P(O)(OCCOc1ccccc1)OCCOc1ccccc1")
-11.6
>>> result_value("CCc1sc(N)nc1-c1ccccc1")
4
>>> result_value("COc1ccc(NC(=O)N(C)Cc2ccccc2Cl)cc1")
11.2
>>> result_value("CCOc1ccccc1NC(=O)CC(C)=O")
33.3
>>> result_value("C=CCC(CNC(C)=O)(C1=CCCCC1)c1ccccc1 (centres undefined)")
17.1
>>> result_value("Cc1cccc(C2=N/C(=C\\c3ccccc3)C(=O)O2)c1")
5.75
>>> result_value("O=S1(=O)CC(N2CCCCC2)C=C(c2ccccc2)O1 (centres undefined)")
12.7
>>> result_value("OCCCNc1ncnc2[nH]ncc12")
-4.9
>>> result_value("Nc1ccc(S(=O)(=O)NC(=O)NCc2ccccc2)cc1")
-10.6
>>> result_value("Cc1c(C#N)c(=N)oc2ccccc12")
18.1
>>> result_value("COc1cc(/C=C/C(=N\\NC(=S)NN)c2sc(NNC(C)=O)nc2C)ccc1O")
15.5
>>> result_value("O=C(c1ccccc1C(=O)N1CCCO1)N1CCCO1")
6.15

###

Assay Info: NCI Yeast Anticancer Drug Screen. Data for the mlh1 rad18 strain (AID 175)
Measurement Context: S. cerevisiae mlh1 rad18 strain growth inhibition; at 50.0 µM; hits give high values
Compounds without any hit were thinned out: in the full panel of roughly 79,000, 15% have a hit. Where a SMILES comes first, the peptide text is derived from it. Bridges are numbered along the chain shown (N, C = ends).
Quantity: growth inhibition (%)

>>> result_value("C=CCSc1ncnc2c1c(C#N)cn2C1OC(CO)C(O)C1O (stereo not drawn)")
28.4
>>> result_value("CCOc1cc(/C=C2\\N=C(c3ccccc3)OC2=O)ccc1O")
-2.75
>>> result_value("CCCSc1ccc2c3c(cccc13)C(=O)OC2=O")
27.5
>>> result_value("Cc1nc2ccccc2c(=O)n1/N=C\\c1ccc2c(c1)CCC2")
29.1
>>> result_value("CC(=O)c1ccc(C(=O)O)cc1")
6.15
>>> result_value("COc1cccc(C(=O)NCCNCCNC(=O)c2cccc(OC)c2OC)c1OC")
-2.35
>>> result_value("N#CC(C#N)=C1C=CC=CC=C1")
-4.4
>>> result_value("CCOC(=O)c1cnc2cc3c(cc2c1Nc1cccc(C(F)(F)F)c1)OCO3")
-11.6
>>> result_value("CCOC(=O)C(=O)Nc1ccccc1OCC")
4.2
>>> result_value("C#CCN(C(=O)C(F)(F)F)C(/C=C\\C(=O)OC)(C(=O)OCC)C(=O)OCC")
-2.55
>>> result_value("OCCNNCCO")
1.9
>>> result_value("O=S(=O)(c1cccc(C(F)(F)F)c1)N(CCCCCN(S(=O)(=O)c1cccc(C(F)(F)F)c1)S(=O)(=O)c1cccc(C(F)(F)F)c1)S(=O)(=O)c1cccc(C(F)(F)F)c1")
10.2
>>> result_value("COC(=O)C1CCC(=O)NCCCCC(NC(=O)C(N)CC(=O)O)C(=O)N1 (stereo not drawn) (H-Asp-Lys-Glu-OMe; lactam 2-3; configuration not given here)")
-27.9
>>> result_value("COc1ccc(N2N=NN(C(C)C)/C2=C(/Cl)c2nnnn2-c2ccc(OC)cc2)cc1")
39.3
>>> result_value("N#CCCN(CCC#N)c1nc(-c2ccccc2)nc(N(CCC#N)CCC#N)n1")
15.1
>>> result_value("CC(=O)c1ccc(NC(=O)CSc2nc(C)nc3c2sc(=S)n3-c2ccccc2)cc1")
-22.1
>>> result_value("O=C1c2ccccc2C(=Cc2cccnc2)c2ccccc21")
40.7
>>> result_value("O=C(Nc1ccc2ccccc2c1)C1CC1")
-6.65
>>> result_value("CNC(=O)C1CCC(=O)N1Cc1c[nH]c2ccccc12 (stereo not drawn)")
-5.45
>>> result_value("COc1ccc2nc3ccccc3c(NCCCN(C)C)c2c1")
12.3
>>> result_value("CCCCCCCCCCCCCCCCN(O)C(=O)c1cnc[nH]1")
22.6
>>> result_value("CC1CN(C(=O)OCC23COC4(C)CCC(C)(OC2)N34)CC(C)O1 (stereo not drawn)")
5.75
>>> result_value("CC(C)(C)OC(=O)N1CCCC1C(=O)NCCNc1ccc(NCCNC(=O)C2CCCN2C(=O)OC(C)(C)C)c2c1C(=O)c1ccccc1C2=O (stereo not drawn)")
-25
>>> result_value("CC1=NN(c2nc(N)nc(CSc3cc(Cl)c(C)cc3S(N)(=O)=O)n2)C(C)(C)C1")
-4.95
>>> result_value("O=c1/c(=C\\C=C\\c2ccccc2)sc2n1CCN=2")
-13.5
>>> result_value("CCC(C)n1c(C)nc2cc(C(F)(F)F)cc(N)c21 (stereo not drawn)")
15.2
>>> result_value("O=c1c2ccccc2[nH]c2c(O)ccc(O)c12")
12.7
>>> result_value("CCc1cccc(C)c1N1C(=O)C(=O)C(c2nc3ccccc3o2)C(=O)C1=O")
34.5
>>> result_value("OCCOc1ccc(C(Cc2ccccc2)N(CCO)CCO)cc1 (stereo not drawn)")
-1.45
>>> result_value("CNC(=O)Nc1ccc(C(=O)O)cc1")
5.2
>>> result_value("CCC1(C)CCC(C)c2ccccc21 (stereo not drawn)")
0.3
>>> result_value("Cc1cccc(NC(=O)COc2c(C)cc(Cl)cc2Cl)c1")
14.8
>>> result_value("CC(C)(C)/C=C/N1N=NC(c2ccccc2)(c2ccccc2)C1=O")
26.7
